assay: Shake-flask drug solubility in absence of excipient (reference solubility); type: physicochemical; conditions: fassgf or other biorelevant, thermodynamic from solid, FaSSGF (biorelevant), 24 h, 37°C, mean ± SD, read-out: Reference solubility
Readout name: solubility at 24 h (µg/mL)
Number only, in µg/mL; omit the unit.

Give the value of solubility at 24 h reported for the following: CC(=O)Nc1ccc(O)cc1 [PRC, Paracetamol] 17000

Give the value of solubility at 24 h reported for the following: CC(C)Cc1ccc(C(C)C(=O)O)cc1 (centres unmarked) [IBU, Ibuprofen] 44

Give the value of solubility at 24 h reported for the following: NC(=O)N1c2ccccc2C=Cc2ccccc21 [CBZ, Carbamazepine] 368

Give the value of solubility at 24 h reported for the following: OCCN(CCO)c1nc(N2CCCCC2)c2nc(N(CCO)CCO)nc(N3CCCCC3)c2n1 [DPL, Dipyridamole] 8600

Give the value of solubility at 24 h reported for the following: CCC(C)n1ncn(-c2ccc(N3CCN(c4ccc(OCC5COC(Cn6cncn6)(c6ccc(Cl)cc6Cl)O5)cc4)CC3)cc2)c1=O (centres unmarked) [ITZ, Itraconazole] 1.2

* * *

What solubility at 24 h was measured for each of the following?
experiment: Shake-flask drug solubility in absence of excipient (reference solubility); assay type: physicochemical; details: thermodynamic from solid, FaSSIF-V2 (biorelevant), 24 h, 37°C, mean ± SD, read-out: Reference solubility
Number only, in µg/mL; omit the unit.

Give the value of solubility at 24 h reported for the following: CC(=O)Nc1ccc(O)cc1 17000

Give the value of solubility at 24 h reported for the following: CC(C)Cc1ccc(C(C)C(=O)O)cc1 (centres unmarked) 1500

Give the value of solubility at 24 h reported for the following: OCCN(CCO)c1nc(N2CCCCC2)c2nc(N(CCO)CCO)nc(N3CCCCC3)c2n1 13

Give the value of solubility at 24 h reported for the following: CCC(C)n1ncn(-c2ccc(N3CCN(c4ccc(OCC5COC(Cn6cncn6)(c6ccc(Cl)cc6Cl)O5)cc4)CC3)cc2)c1=O (centres unmarked) 0.05

Give the value of solubility at 24 h reported for the following: NC(=O)N1c2ccccc2C=Cc2ccccc21 [CBZ, Carbamazepine] 280

* * *

assay: Shake-flask drug solubility in absence of excipient (reference solubility); assay type: physicochemical; details: compendial media (0.1 N HCl pH 1; phosphate buffer pH 6.8), compendial media, 24 h, read-out: Solubility of pure drug
Readout name: solubility at 24 h (µg/mL)
Number only, in µg/mL; omit the unit.

Give the value of solubility at 24 h reported for the following: NC(=O)N1c2ccccc2C=Cc2ccccc21 [CBZ, Carbamazepine] 250

Hello, the source for this data is paper PMC7012964, in case you need it.
